# TEST SYSTEM: xanthine oxidase (Bos taurus, UniProt P80457)
# Construct: purchased Sigma (St. Louis, MO, USA)
# Sequence (P80457 2-1332 limits assumed): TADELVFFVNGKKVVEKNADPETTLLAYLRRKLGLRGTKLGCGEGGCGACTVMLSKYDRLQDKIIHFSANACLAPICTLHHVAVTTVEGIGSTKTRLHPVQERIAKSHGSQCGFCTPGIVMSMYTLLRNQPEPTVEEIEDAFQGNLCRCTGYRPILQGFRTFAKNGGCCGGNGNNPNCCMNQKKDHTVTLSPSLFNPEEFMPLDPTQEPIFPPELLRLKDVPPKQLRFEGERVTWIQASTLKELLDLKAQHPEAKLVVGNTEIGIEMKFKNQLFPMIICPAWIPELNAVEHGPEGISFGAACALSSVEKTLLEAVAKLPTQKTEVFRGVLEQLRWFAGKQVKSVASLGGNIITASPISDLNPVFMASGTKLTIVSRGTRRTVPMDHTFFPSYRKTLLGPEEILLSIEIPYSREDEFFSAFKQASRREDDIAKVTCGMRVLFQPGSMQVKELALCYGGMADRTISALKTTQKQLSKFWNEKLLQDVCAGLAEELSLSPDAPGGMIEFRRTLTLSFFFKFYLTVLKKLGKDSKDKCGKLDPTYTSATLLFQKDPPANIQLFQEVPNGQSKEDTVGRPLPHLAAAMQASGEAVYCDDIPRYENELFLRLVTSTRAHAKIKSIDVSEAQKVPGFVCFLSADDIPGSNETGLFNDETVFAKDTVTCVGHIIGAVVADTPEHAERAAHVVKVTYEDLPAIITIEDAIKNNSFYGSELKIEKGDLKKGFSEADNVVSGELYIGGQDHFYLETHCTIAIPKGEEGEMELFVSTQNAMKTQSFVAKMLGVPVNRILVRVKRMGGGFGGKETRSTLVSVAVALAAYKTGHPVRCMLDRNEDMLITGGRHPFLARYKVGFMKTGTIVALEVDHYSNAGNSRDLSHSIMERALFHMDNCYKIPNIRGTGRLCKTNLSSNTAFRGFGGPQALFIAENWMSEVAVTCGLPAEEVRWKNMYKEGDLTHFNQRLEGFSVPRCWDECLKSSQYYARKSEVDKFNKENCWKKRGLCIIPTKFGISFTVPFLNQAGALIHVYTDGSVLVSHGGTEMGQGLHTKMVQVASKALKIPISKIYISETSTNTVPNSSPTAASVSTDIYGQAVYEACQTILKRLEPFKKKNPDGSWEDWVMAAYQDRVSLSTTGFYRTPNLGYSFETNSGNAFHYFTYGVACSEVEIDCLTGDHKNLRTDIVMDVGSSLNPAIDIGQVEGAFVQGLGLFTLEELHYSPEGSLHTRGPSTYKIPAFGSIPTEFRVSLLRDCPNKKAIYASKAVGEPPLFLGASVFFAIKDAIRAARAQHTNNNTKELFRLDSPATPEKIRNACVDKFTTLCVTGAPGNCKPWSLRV
# EXPERIMENTAL PROTOCOL: Xanthine oxidase inhibition assay (uric acid production from xanthine, 295 nm)
# Assay type: biochemical
# PARTICULARS: read-out: IC50 (μg/ml) xanthine oxidase (converted)
PARAMETER: IC50 (µM)

1: Oc1cc(O)c2c(c1)O[C@H](c1ccc(O)c(O)c1)[C@H](O)C2 [(-)-Epicatechin, (-)-epicatechin]
2: Oc1cc(O)c2c(c1)OC1(c3ccc(O)c(O)c3)Oc3cc(O)c4c(c3C2C1O)OC(c1ccc(O)c(O)c1)C(O)C4c1c(O)cc(O)c2c1OC(c1ccc(O)c(O)c1)C(O)C2 (stereo not drawn)
3: O=C(O)C1=C[C@@H](O)[C@@H](O)[C@H](O)C1
Request: Sort key = IC50. Sort direction = ascending. Apply to the list above. In your reply, arrange the labels in the requested order.
Result: 2, 1, 3
